- tgt: UniProt Q86W56
- procedure text: Biochemical assay (PARG, TFMU-ADPr substrate)
- condition description: PARG, TFMU-ADPr substrate

line notation	unit abbrev	IC50
CC1(NS(=O)(=O)c2cc(N3CCN[C@@H](CO)C3)c3cnc(-c4nnc(C(F)F)s4)n3c2)COC1	nM	1.18
CC(C)C(=O)N1CCN(c2cc(S(=O)(=O)NC3(C)CC3)cn3c(-c4nnc(C(F)(F)F)s4)nnc23)CC1	nM	10
CC(C)C(=O)N1CCN(c2cc(S(=O)(=O)NC3CC3)cn3c(-c4nnc(C(F)F)s4)ncc23)CC1	nM	20
CC(C)C(=O)NC1CCN(c2cc(S(=O)(=O)NC3(C#N)CC3)cn3c(-c4nnc(C(F)(F)F)s4)ncc23)CC1	nM	100
N#CC1(NS(=O)(=O)c2cc(N3CC[C@@H](O)C3)c3cnc(-c4nnc(C(F)(F)F)s4)n3c2)CC1	nM	120
C[C@H]1CN(c2cc(S(=O)(=O)NC3(C)COC3)cn3c(-c4nnc(C(F)(F)F)s4)ncc23)C[C@H](C)O1	nM	0.5
CN(C)CC1(O)CCN(c2cc(S(=O)(=O)NC3(C)CC3)cn3c(-c4nnc(C(F)F)s4)ncc23)CC1	nM	4.82

* * *

- procedure text: Solubility assay (FaSSGF / FaSSIF)
- Format: physicochemical
- condition description: kinetic from dmso stock; FaSSIF solution pH 6.5, 100 μM from DMSO stock, 2 h at 25° C.; read-out: FaSSIF solubility
endpoint label: log10(solubility at 2 h) (log10 of the value in µM)

compound	log10(solubility at 2 h)
CC(C)C(=O)N1CCN(c2cc(S(=O)(=O)NC3(C#N)CC3)cn3c(-c4nnc(C(F)F)s4)ncc23)CC1	0.50
CC1(NS(=O)(=O)c2cc(N3CCN(C(=O)C4CC4)CC3)c3cnc(-c4nnc(C(F)(F)F)s4)n3c2)COC1	1.99
CN(C)C(=O)N1CCN(c2cc(S(=O)(=O)NC3(C#N)CC3)cn3c(-c4nnc(C(F)(F)F)s4)ncc23)CC1	1.92
CC1(C(=O)N2CCN(c3cc(S(=O)(=O)NC4(C#N)CC4)cn4c(-c5nnc(C(F)(F)F)s5)ncc34)CC2)CCCO1 (stereo not shown)	1.99
N#CC1(NS(=O)(=O)c2cc(N3CCN(C(=O)C4CNC4)CC3)c3cnc(-c4nnc(C(F)(F)F)s4)n3c2)CC1	1.89
[2H]c1nc(-c2nnc(C(F)F)s2)n2cc(S(=O)(=O)NC3(C)COC3)cc(N3CCN(C(=O)C(C)C)CC3)c12	1.24
CC1(O)CCN(c2cc(S(=O)(=O)NC3(CF)CC3)cn3c(-c4nnc(C(F)F)s4)nnc23)CC1	1.38

* * *

- tgt: PARG (Homo sapiens, UniProt Q86W56)
- Sequence (Q86W56 whole entry): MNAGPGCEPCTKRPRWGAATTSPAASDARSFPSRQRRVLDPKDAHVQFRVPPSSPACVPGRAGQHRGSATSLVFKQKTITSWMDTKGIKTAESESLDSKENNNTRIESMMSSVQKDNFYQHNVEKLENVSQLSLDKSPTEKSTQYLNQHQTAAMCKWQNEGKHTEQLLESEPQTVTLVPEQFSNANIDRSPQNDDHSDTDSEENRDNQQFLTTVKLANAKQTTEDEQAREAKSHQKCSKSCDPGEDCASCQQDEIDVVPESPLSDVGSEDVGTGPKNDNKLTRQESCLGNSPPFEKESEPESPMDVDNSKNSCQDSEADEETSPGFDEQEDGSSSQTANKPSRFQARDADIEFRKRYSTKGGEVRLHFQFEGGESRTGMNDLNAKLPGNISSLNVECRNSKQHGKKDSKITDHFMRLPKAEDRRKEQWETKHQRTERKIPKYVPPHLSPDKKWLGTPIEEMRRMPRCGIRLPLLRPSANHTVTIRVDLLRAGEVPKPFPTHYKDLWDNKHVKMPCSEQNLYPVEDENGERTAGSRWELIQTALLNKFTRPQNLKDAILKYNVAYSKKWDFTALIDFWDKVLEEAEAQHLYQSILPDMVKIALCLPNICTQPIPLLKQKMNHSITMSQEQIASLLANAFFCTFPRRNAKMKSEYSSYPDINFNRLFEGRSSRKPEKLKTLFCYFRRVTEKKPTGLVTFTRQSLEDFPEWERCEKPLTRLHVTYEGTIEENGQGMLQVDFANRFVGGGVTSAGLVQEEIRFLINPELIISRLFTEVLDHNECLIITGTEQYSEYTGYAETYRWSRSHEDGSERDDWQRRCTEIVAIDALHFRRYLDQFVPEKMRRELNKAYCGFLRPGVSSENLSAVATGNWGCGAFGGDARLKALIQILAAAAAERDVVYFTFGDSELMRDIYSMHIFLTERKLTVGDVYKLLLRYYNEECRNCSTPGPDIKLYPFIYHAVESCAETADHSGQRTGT
- procedure text: Biochemical assay (PARG, TFMU-ADPr substrate)
- condition description: PARG, TFMU-ADPr substrate

line notation	IC50, nM
N#CC1(NS(=O)(=O)c2cc(N3CCN(C(=O)c4ccncc4)CC3)c3cnc(-c4nnc(C(F)(F)F)s4)n3c2)CC1	11.5
O=S(=O)(NC1(CF)CC1)c1cc(N2CCC3(CC2)COC3)c2nnc(-c3nnc(C(F)F)s3)n2c1	0.65
CC1(NS(=O)(=O)c2cc(C3=CCN(S(C)(=O)=O)CC3)c3cnc(-c4nnc(C(F)(F)F)s4)n3c2)CC1	1.41
CC(C)S(=O)(=O)N1CCN(c2cc(S(=O)(=O)NC3CC3)cn3c(-c4nnc(C(F)(F)F)s4)ncc23)CC1	69.2
CN1CC2(CCN(c3cc(S(=O)(=O)NC4(CF)CC4)cn4c(-c5nnc(C(F)F)s5)nnc34)CC2)CC1=O	3.67
COCC1(O)CCN(c2cc(S(=O)(=O)NC3(C)CC3)cn3c(-c4nnc(C(F)F)s4)ncc23)CC1	1.53
COC1(C(=O)N2CCN(c3cc(S(=O)(=O)NC4(C)CC4)cn4c(-c5nnc(C(F)F)s5)ncc34)CC2)CNC1	0.21

* * *

Attribute: IC50
- tgt: PARG (Homo sapiens, UniProt Q86W56)
- procedure text: Biochemical assay (PARG, TFMU-ADPr substrate)
- condition description: PARG, TFMU-ADPr substrate

molecule	IC50
CC(C)C(=O)N1CCN(c2cc(S(=O)(=O)NC3(C#N)CC3)cn3c(-c4nnc(C(F)(F)F)s4)ncc23)C[C@H]1C	22.9 nM
CC1(NS(=O)(=O)c2cc(N3CCN(c4ccc[nH]c4=O)CC3)c3cnc(-c4nnc(C(F)(F)F)s4)n3c2)CC1	54.1 nM
C[C@H]1CN(c2cc(S(=O)(=O)NC3(C)COC3)cn3c(-c4nnc(C(F)(F)F)s4)nc(Cl)c23)C[C@H](C)O1	69.2 nM
CC1(NS(=O)(=O)c2cc(N3CCN(C(=O)C4(OCC(=O)O)CC4)CC3)c3cnc(-c4nnc(C(F)F)s4)n3c2)CC1	6.55 nM
CC(C)C(=O)N1CCN(c2cc(S(=O)(=O)NC3(C)CCOC3)cn3c(-c4nnc(C(F)F)s4)ncc23)CC1 (stereo not shown)	25.1 nM
N#CC1(NS(=O)(=O)c2cc(N3CCN(C(=O)c4ccn[nH]4)CC3)c3cnc(-c4nnc(C(F)(F)F)s4)n3c2)CC1	4.37 nM
CC1(NS(=O)(=O)c2cc(N3CCN(C(=O)C4(CO)CC4)CC3)c3cnc(-c4nnc(C(F)(F)F)s4)n3c2)CC1	5.01 nM

* * *

- tgt: PXR (Homo sapiens, UniProt O75469)
- Construct: host or cells: DPX2 (HepG2)
- Sequence (O75469 whole entry): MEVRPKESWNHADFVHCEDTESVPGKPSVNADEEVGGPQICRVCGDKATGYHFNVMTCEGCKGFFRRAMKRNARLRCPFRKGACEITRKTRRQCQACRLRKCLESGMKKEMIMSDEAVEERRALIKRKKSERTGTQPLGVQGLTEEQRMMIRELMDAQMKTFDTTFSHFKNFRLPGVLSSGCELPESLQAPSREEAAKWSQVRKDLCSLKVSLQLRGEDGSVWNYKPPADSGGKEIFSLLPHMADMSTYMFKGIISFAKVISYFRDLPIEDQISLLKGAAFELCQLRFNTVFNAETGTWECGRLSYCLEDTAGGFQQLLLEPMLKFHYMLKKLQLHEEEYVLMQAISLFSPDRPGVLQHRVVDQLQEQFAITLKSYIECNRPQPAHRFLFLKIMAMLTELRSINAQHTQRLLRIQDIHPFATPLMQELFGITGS
- procedure text: PXR assay (DPX2 luciferase reporter cells)
- Type: cell-based
- condition description: 24 h
Note to self: PXR Activation @30 uM (Fold) under 2 Fold means MET, ties and anything higher get NOT MET.

compound	class name
CC1(NS(=O)(=O)c2cc(N3CCN(C(=O)[C@H]4CCCN4)CC3)c3cnc(-c4nnc(C(F)(F)F)s4)n3c2)CC1 [Example 324]	MET
CN1CCC1(C)C(=O)N1CCN(c2cc(S(=O)(=O)NC3(C)CC3)cn3c(-c4nnc(C(F)(F)F)s4)ncc23)CC1 (centres unmarked) [Example 330]	MET
CC(C)C(=O)N1CCN(c2cc(S(=O)(=O)NC3(C#N)CC3)cn3c(-c4nnc(C(F)(F)F)s4)ncc23)CC1 [Example 167]	NOT MET
CN1CC[C@@H]1C(=O)N1CCN(c2cc(S(=O)(=O)NC3(C)CC3)cn3c(-c4nnc(C(F)(F)F)s4)ncc23)CC1 [Example 287]	MET
CC1(NS(=O)(=O)c2cc(N3CCN(C(=O)[C@@H]4CCN4)CC3)c3cnc(-c4nnc(C(F)(F)F)s4)n3c2)CC1 [Example 284]	MET
N#CC1(NS(=O)(=O)c2cc(N3CCN(C(=O)C4CNC4)CC3)c3cnc(-c4nnc(C(F)(F)F)s4)n3c2)CC1 [Example 251]	MET
N#CC1(NS(=O)(=O)c2cc(N3CCN(C(=O)C4CCO4)CC3)c3cnc(-c4nnc(C(F)(F)F)s4)n3c2)CC1 (centres unmarked) [Example 236]	MET
COC1(C(=O)N2CCN(c3cc(S(=O)(=O)NC4(C)CC4)cn4c(-c5nnc(C(F)F)s5)ncc34)CC2)CNC1 [Example 311]	MET
CN1CC[C@H]1C(=O)N1CCN(c2cc(S(=O)(=O)NC3(C)CC3)cn3c(-c4nnc(C(F)(F)F)s4)ncc23)CC1 [Example 285]	MET
COC1(C(=O)N2CCN(c3cc(S(=O)(=O)NC4(C)CC4)cn4c(-c5nnc(C(F)(F)F)s5)ncc34)CC2)CC1 [Example 193]	NOT MET
CC(C)C(=O)N1CCN(c2cc(S(=O)(=O)NC3(C#N)CC3)cn3c(-c4nnc(C(F)F)s4)ncc23)CC1 [Example 32]	NOT MET
N#CC1(NS(=O)(=O)c2cc(N3CCN(C(=O)c4ccncc4)CC3)c3cnc(-c4nnc(C(F)(F)F)s4)n3c2)CC1 [Example 254]	MET
CC1(NS(=O)(=O)c2cc(N3CCN(c4ccc[nH]c4=O)CC3)c3cnc(-c4nnc(C(F)(F)F)s4)n3c2)CC1 [Example 336]	MET
C[C@H]1CN(c2cc(S(=O)(=O)NC3(C)COC3)cn3c(-c4nnc(C(F)F)s4)ncc23)C[C@H](C)N1 [Example 179]	NOT MET

* * *

We begin with a simple list: items and their reported log10 of IC50.
- tgt: PARG (Homo sapiens)
- procedure text: Biochemical assay (PARG, TFMU-ADPr substrate)
- condition description: PARG, TFMU-ADPr substrate
endpoint label: log10 of IC50 (log10 of the value in nM)

compound	quantitative readout
C[C@@H]1CN(c2cc(S(=O)(=O)NC3(C#N)CC3)cn3c(-c4nnc(C(F)F)s4)ncc23)C[C@H](C)N1C(=O)C1CC1	0.88
CN1CC[C@@H]1C(=O)N1CCN(c2c(F)c(S(=O)(=O)NC3(C)CC3)cn3c(-c4nnc(C(F)(F)F)s4)ncc23)CC1	1.03
COC1(C(=O)N2CCN(c3cc(S(=O)(=O)NC4(C)COC4)cn4c(-c5nnc(C(F)(F)F)s5)ncc34)CC2)CC1	-0.27
COC(C)C(=O)N1CCN(c2cc(S(=O)(=O)NC3(C#N)CC3)cn3c(-c4nnc(C(F)(F)F)s4)ncc23)CC1 (centres unmarked)	1.46
COCC1CN(c2cc(S(=O)(=O)NC3(CF)COC3)cn3c(-c4nnc(C(F)F)s4)ncc23)CCN1 (centres unmarked)	0.80
N#CC1(NS(=O)(=O)c2cc(N3CCOCC3)c3cnc(-c4nnc(C(F)F)s4)n3c2)CC1	0.95
COC1(C(=O)N2CCN(c3cc(S(=O)(=O)NC4(C#N)CC4)cn4c(-c5nnc(C(F)(F)F)s5)ncc34)CC2)CC1	-0.42
[2H]c1nc(-c2nnc(C(F)(F)F)s2)n2cc(S(=O)(=O)NC3(C#N)CC3)cc(N3CCN(C(=O)C4CC4)CC3)c12	1.52
CCNC(=O)N1CCN(c2cc(S(=O)(=O)NC3(C)COC3)cn3c(-c4nnc(C(F)(F)F)s4)ncc23)CC1	0.80
COC1(C(=O)N2CCN(c3c(F)c(S(=O)(=O)NC4(C)CC4)cn4c(-c5nnc(C(F)F)s5)ncc34)CC2)CC1	-0.18
Cc1nc(-c2nnc(C(F)F)s2)n2cc(S(=O)(=O)NC3(C#N)CC3)cc(N3CCN(C(=O)C(C)C)CC3)c12	0.22
CC(C)C(=O)N1CCN(c2cc(S(=O)(=O)NC3COC3)cn3c(-c4nnc(C(F)F)s4)cnc23)CC1	1.47
CC(C)C(=O)N1CCN(c2cc(S(=O)(=O)NC3(C)CC3)cn3c(-c4nnc(C(F)(F)F)s4)nc(C#N)c23)CC1	0.52
CC1(O)CC2(CCN(c3cc(S(=O)(=O)NC4(C#N)CC4)cn4c(-c5nnc(C(F)F)s5)ncc34)CC2)C1	0.37
